These entries and their values trace back to PubChem BioAssay (NCI).

tested on: UACC-257 melanoma; test: NCI-60 one-dose screen, 48 h (100 = growth as untreated, 0 = no growth, -100 = all killed); details: 10 µM unless noted
This is part of a sample that, as a whole, favours compounds with a hit. Of some 83,000 tested, about 20% had one in any assay.
Let's look at some molecules and their measured growth.
Respond with the bare value in %.

Observe how each entry below is paired with its result.
Prompt: Could you tell me which growth is on file for COc1cc(/C=C/CO)cc(OC)c1O[C@@H]1O[C@H](CO)[C@@H](O)[C@H](O)[C@H]1O ?
Completion: 96.3

Prompt: Could you tell me which growth is on file for CNc1cccc2c1C(=O)c1cccc(N)c1C2=O ?
Completion: 80.5

Prompt: Could you tell me which growth is on file for c1ccc2nc(N3CCOCC3)c(N3CCCCC3)nc2c1 ?
Completion: 103

Prompt: Could you tell me which growth is on file for CN1CCN(/C=C2\CC(C(=O)NCc3ccc(Cl)cc3Cl)NC2=O)CC1 (stereo not given) ?
Completion: 93.2

Prompt: Could you tell me which growth is on file for O=C1CCc2ccccc2N1 ?
Completion: 106

Prompt: Could you tell me which growth is on file for CN1C(=O)c2cc(Cl)nc3c(NC(=O)c4cccc(Cl)c4)c(Cl)c(NC(=O)c4cccc(Cl)c4)c1c23 ?
Completion: -49.3

Further cases:
Prompt: Could you tell me which growth is on file for Cc1nccc2c3ccc(OCc4cn(-c5ccccc5)nn4)cc3n(CCCc3ccccc3)c12 ?
Completion: 55.9

Prompt: Could you tell me which growth is on file for Cc1ccc(C(=O)/C(=C/c2ccc([N+](=O)[O-])cc2)S(=O)Cc2ccccc2)cc1 (stereo not given) ?
Completion: 65.9

Prompt: Could you tell me which growth is on file for O=C1CCC23OC(c4ccccc4N12)C(O)C(O)C3O (stereo not given) ?
Completion: 102

Prompt: Could you tell me which growth is on file for NS(=O)(=O)c1ccc(-n2nc(-c3ccccc3)ccc2=O)cc1 ?
Completion: 111

###

system: EKVX NSCLC; assay: NCI-60 one-dose screen, 48 h (100 = growth as untreated, 0 = no growth, -100 = all killed); details: 10 µM unless noted
The panel holds about 83,000 compounds, 20% with a hit somewhere; the sample as a whole holds those more often.
measured attribute: growth (%)
Respond with the bare value in %.

Observe how each entry below is paired with its result.
Prompt: Could you tell me which growth is on file for CN(C)CSc1nc2ccccc2s1 ?
Completion: 87.6

Prompt: Could you tell me which growth is on file for C#C[C@@]1(O)[C@@H](CO)O[C@@H](n2cc(Cl)c3c(N)ncnc32)[C@@H]1O ?
Completion: -32.4

Prompt: Could you tell me which growth is on file for CCOC(=O)c1c(C(F)(F)F)n([O-])c2ccc(Cl)cc2[n+]1=O ?
Completion: -8.8

Prompt: Could you tell me which growth is on file for CC1CCN(CCCCCOc2ccc3oc4cc(Cl)ccc4c(=O)c3c2)CC1 ?
Completion: 83.8

Further cases:
Prompt: Could you tell me which growth is on file for COc1ccc2nc(-c3ccc(OC)c(OC)c3)cc(-c3nnc(SCC(=O)Nc4ccc(/C(C)=N\O)cc4)n3-c3ccccc3)c2c1 ?
Completion: 88.8

Prompt: Could you tell me which growth is on file for O=C(Nc1nc2ccc(C(F)(F)F)cc2s1)c1cc(Cl)ccc1O ?
Completion: -1.23

Prompt: Could you tell me which growth is on file for C=C(C)[C@@H]1CCC=C2CC[C@]3(C)[C@H](CC[C@@H]4[C@@]5(C)CCCNC(C)(C)[C@@H]5CC[C@]43C)[C@H]21 ?
Completion: 94.6

Prompt: Could you tell me which growth is on file for Cc1nn(-c2ccc(-c3ccc(OC(F)(F)F)cc3)cc2)c2nc(-c3ccccc3)nc(N)c12 ?
Completion: 97.7

Prompt: Could you tell me which growth is on file for Nc1c(C(=O)Nc2cccc3ccccc23)sc2nc3c(cc12)CCCCC3 ?
Completion: 40.4

Prompt: Could you tell me which growth is on file for C#C[C@@]1(O)[C@@H](CO)O[C@@H](n2cc(I)c3c(N)ncnc32)[C@@H]1O ?
Completion: -19.2

Prompt: Could you tell me which growth is on file for COc1ccc(C2CC(c3ccc(OC)cc3O)=NN2c2ccc(S(N)(=O)=O)cc2)cc1 (centres undefined) ?
Completion: 20.9
